# method: soluble on expression in E. coli; label from the status in PepcDB or PDB records
resultType: soluble on expression in E. coli

[
  {
    "querySequence": "IRSFATHAQLPISIVNREDDAFLNPNFRFIDHSIIGKNVPVADQSFRVGCSCASDEECMYSTCQCLDEMAPDSDEEADPYTRKKRFAYYSQGAKKGLLRDRVLQSQEPIYECHQGCACSKDCPNRVVERGRTVPLQIFRTKDRGWGVKCPVNIKRGQFVDRYLGEIITSEEADRRRAESTIARRKDVYLFALDKFSDPDSLDPLLAGQPLEVDGEYMSGPTRFINHSCDPNMAIFARVGDHADKHIHDLALFAIKDIPKGTELTFDYVNGLTGLESDAHDPSKISEMTKCLCGTAKCRGYLW",
    "resultType": "soluble on expression in E. coli",
    "value": "soluble"
  },
  {
    "querySequence": "GSSGSSGMKQATRKPTTPGDILLYEYLEPLDLKINELAELLHVHRNSVSALINNNRKLTTEMAFRLAKVFDTTVDFWLNLQAAVDLWEVENNMRTQEELGRIETVAEYLARREERAKKVA",
    "resultType": "soluble on expression in E. coli",
    "value": "soluble"
  },
  {
    "querySequence": "ERSPFPELLPFGEVSVRDSMLYLFVRPDMAGKEVFIPVNGEFLEEVSNLTNASPLNMDIRKTGVRIRMPASMPESFLVLALAFDRNDFVLAGRPQGYPLHMANSSRIYGHSCWDYYTGFKSITGMKWQAVSAPRAIIYTDMEAGKTLRLSVGREEREITLEGGKSEEVSISHDGLSWGKPYVRQVGGVFGMIPDNILRGDSIPLPLTKGWEEMPVGQVEKKPWGEISSCLLVQDIVSDREQTVACHLTFGNGIYVTLNGKQITAELIRETGLAHELTVCLPLQKGKNRLAVKFMNRFGEELIRGVSWPKSYTRYLLPIEGFSLEKVGKKGIPIELRPASVRYQGASASIPNIALL",
    "resultType": "soluble on expression in E. coli",
    "value": "not soluble"
  },
  {
    "querySequence": "MTRLLDATWEKELLAASARLSQAQEENFLDLVDAAEGRIDETIARVLLRTFSAKDDYGTQERVVSVLSTGADQVVIDAIVEEMPRLALEAPEWAQTLLGTEVEFRPDLTARALSQAPTICRIAAENILKNEDFQSQYPNAALVLGQLDA",
    "resultType": "soluble on expression in E. coli",
    "value": "not soluble"
  }
]

Consider `MLRISRDLVIDEDDIEIGFVRASGPGGQNVNKVATSAQLRFDTRKLTLPEDATIRLARIAGQRMTKDGVIVIHAQRFRTQERNRQDAIDRLVEILSEAMIRPKPRRATRPTFGSKQRRLEGKKRRSDVKAGRGRSFDDLEHHHHHH` . Its measured soluble on expression in E. coli is soluble

Consider `MGSDKIHHHHHHMQLRALMYFDELVRTNSMRAAAENLNVAPTAVSRQIENLEYYFGSPLVERSSRGVKLTAAGELLAARAGKTLRELDHVHRLIDDLKGLQRGRVTVYANGATVANLLAPVLAQFSLKYPKLRFEVHITSARQAMEALGAAEADLVVSLFAPKLSGVKVRSRTRISYDVIFPAGHALAAQPEVSLKELAGMPLALPDKSFAARQAFDTLFADAGIELDPVFITSSLEMLKELVLGNAAATLLPALSVAREIRSGQMVAVPLAGKKGIHTQIDLCVAPDRQLSFAASKLADFIERFMREATAG` . Its measured soluble on expression in E. coli is not soluble

====

# method: soluble on expression in E. coli; label from the status in PepcDB or PDB records
resultType: soluble on expression in E. coli

The examples below pair each entry with its known result.
[
  {
    "querySequence": "MPIGHSREVLVRLRDILALLADGCKTTSLIQQRLGLSHGRAKALIYVLEKEGRVTRVAFGNVALVCLSMDQYRQLVDGMIREVERLVTTNKLKFISPPRLHDLIIKDPQARKFFSSIIPIAHRTAIILSFLNHLLKMIYGEPYVKTDETVYLTANRKVHIEPPAK",
    "soluble on expression in E. coli": "soluble"
  },
  {
    "querySequence": "MGHHHHHHSHGDAAPEALEFEYDLAEPPEKVWRALTVPELLAAWMMPNDIRPEIGNRFAFAGTEAAIECEILDAEPERLLRYSWRQQPGDAARQDPLDSVVTFTLARTVSGGTHLRIVHDGFGGKAMPAVAMASG",
    "soluble on expression in E. coli": "not soluble"
  },
  {
    "querySequence": "MANFVQLSETPAACSSNPCGPEAAGTCKETNSGYICRCNQGYRISLDGTGNVTCIVRQESG",
    "soluble on expression in E. coli": "soluble"
  },
  {
    "querySequence": "SLQDFWCSTLVKGVIYGSYSVSEMFPKNFTNCTWTLENPDPTKYSIYLKFSKKDLSCSNFSLLAYQFDHFSHEKIKDLLRKNHSIMQLCNSKNAFVFLQYDKNFIQIRRVFPTNFPGLQKKGEEDQKSFFEFLVLNKVSPSQFGCHVLCTWLESCLKSENGRTESCGIMYTKCTCPQHLGEWGIDDQSLILLNNVVLPLNEQTEGCLTQELQTTQVCNLTREAKRPPKEEFGMMGDHTIKSQRPRSVHEKRVPQEQADAAKFMAQTG",
    "soluble on expression in E. coli": "soluble"
  },
  {
    "querySequence": "MAHHHHHHMKCEVDRPVTQNTERNGSEGNVAKNYMTHLYQFQNNEMKKIDASYFENKYLGLFFGASWCRYCVTFIQNINFFKKNFPFIEIIYIPFDKTYNDYVAFLKATDFYSLPFDNYLYICKKFNIKNLPSFMIIAPNNNVLVKDAVQLIKTDTYVNNFKSLVKNYTVHPSHFKIGNRFFDLFCA",
    "soluble on expression in E. coli": "soluble"
  }
]

Consider `ADETLAEFHVEMGGCENCHADGEPSKDGAYEFEQCQSCHGSLAEMDDNHKPHDGLLMCADCHAPHEAKVGEKPTCDTCHDDGRTAK` . Its measured soluble on expression in E. coli is soluble

Consider `MSNNETMMFNVEKEKVNEARELLVSVYKALKEKGYNPINQIVGYILSGDPTYITNHLDARSSIRKVERDELLEEILRCYLEECIGKEGSV` . Its measured soluble on expression in E. coli is soluble

Consider `MGSDKIHHHHHHVTYGDNVKPINDALLTEFPKEKRYLVYDKKFVKNPEAWSAEYALPYRRLRFIRLAYLLATSKHLFIDNYIGEYSVAPIRQGTKRIQLWHAAGTLKKFGLTSSRSLMVPKHVLRRFKRVYQRYGDFIVPGEACAKQFMAPHDLHRTVFKTLGVPRTDYWFNEQHQTVKKQLSDIYVKPKRRILLYAPTYREYNGMEGQTVRQLEQLTDQGWTILVKLHPTVRSMFTHQKAHVHFVTDEYSINDYLLITDVLVTDYSSIPFESCLLGVPTVLYTPDIDTYRQIPGIIDSYPDPLPVTCTDQFEIMLNWINSDVSLQESRMAMEQFKTIWYTEQPGQATRRIVDHYYRKVR` . Its measured soluble on expression in E. coli is not soluble

====

# method: soluble on expression in E. coli; label from the status in PepcDB or PDB records
resultType: soluble on expression in E. coli

[
  {
    "querySequence": "MGVYGMEQNFGLISIIMAAYNAENTIEKAVMSVMAQTYTQFELIIINDCSTDKTLSIIKKFEEFDKRIFLINNSYNRGVSYSRRYGLEKARGEWIAILDSDDAWAADKLEKQIRLQKEKNADLVYTGSAFMDSSGNSIEWYLHVPPEIGYRKLLKQNLISNSSALVRKELYMQYYASGDNMHEDFAIWLRILKTGRKAYGIDEPLLIYRFMRKSKSGNKLIAAKMNWNTYRYIGLDVVSRMYYMIWYMFNGLKKYITLNNEVAKV",
    "soluble on expression in E. coli": "not soluble"
  },
  {
    "querySequence": "MSLKFTAIDFETANEKRNSPCSIGIVVVKDGHVVEKSHHLIRPKEMRFMPINIGIHGIRPAMVEKEPEFDKVWEKIKHYFDDTLVIAHNASFDISVLRKSAELYNIELPEFNYICTMKLARNFYKGIENAKLNTVNNFLGYEFRHHDALYDALACSNIMLSISKELKCKDITEISKLLGVTVGKVDSKGYKPSQTKGIAVRTSDRIYFSKKKSAFERLKADEFKNEVVVFTGRLDSMSRDEAMGLVRRLGGTAGSSVTKKTTILVTNMKNIKNLRREEMSNKLKRASDLNARGQNIKFLNEEEFLKIKEGHHHHHH",
    "soluble on expression in E. coli": "soluble"
  },
  {
    "querySequence": "MSTLLDRVPCTIVTGFLGAGKTTLLRGLLEKLDGKRLAIIVNEFGDIGIDGEILKGCGIESCPEENIVELANGCICCTVADDFQPAIEQILSRQPKVEHILIETSGLALPKPLVQAFQWPAIKSRVTVDAVVAVVDGAALAEGQVAHDMEALAAQRANDEALDHDDPVEEVFEDQVACADLIVLTKADLLDDAGLEKAKAHILEHLPKAAKIVVASNGAIDPTVLIGLGLAVEEDIENRRTHHDGELDHEHDDFDSFVIDLPAVTDPEALAARIAQTAAAENVLRIKGFIEVATKPMRLQVQAVGSRVNHYYDRPWAAGEERRSRLVVIGEKGINREKIEQMLAA",
    "soluble on expression in E. coli": "not soluble"
  },
  {
    "querySequence": "MSKRKVAIIGSGNIGTDLMIKILRHGQHLEMAVMVGIDPQSDGLARARRMGVATTHEGVIGLMNMPEFADIDIVFDATSAGAHVKNDAALREAKPDIRLIDLTPAAIGPYCVPVVNLEANVDQLNVNMVTCGGQATIPMVAAVSRVARVHYAEIIASIASKSAGPGTRANIDEFTETTSRAIEVVGGAAKGKAIIVLNPAEPPLMMRDTVYVLSDEASQDDIEASINEMAEAVQAYVPGYRLKQRVQFEVIPQDKPVNLPGVGQFSGLKTAVWLEVEGAAHYLPAYAGNLDIMTSSALATAEKMAQSLARKAGEAA",
    "soluble on expression in E. coli": "soluble"
  },
  {
    "querySequence": "MLSKGAVIDKLKSYKPCENCNGPISKTVSISDLNLDKRKRNCVCGNSQLDDVMLDVLNLMSEYNELQNTDLKDVTLRDAGTPLVEIGYPLKYLPVVSNDELIVMKDVSKACATEILKIPEVKGVISNNSKNNSFNRVEDSGEVNALIAGDDFRCDIFVLKSIMDCVVICKNQSKVHIEFPRPFNPKIAKIDRLNLKGKVVVDGFCGSGTLGLAALKKGAKKVIFSDINPHALKDVIYNLKLNFSKEVFDRIEIINSDFLNLDIVGDVCFVDLFPHMDKEPFLNKAKTISKQVVLILEHHHHHH",
    "soluble on expression in E. coli": "not soluble"
  },
  {
    "querySequence": "GMSAPVTLINPFKVPADKLEAAIEYWEAHRDFMAQQPGYLSTQLHQSIDEGATYQLINVAIWQSEADFYQAAQKMRQALGHVQVEGLCGNPALYRVIRT",
    "soluble on expression in E. coli": "soluble"
  },
  {
    "querySequence": "MTFQVILCYETVRQVAGLESELKANGFGQAQVLPNGTVPNRGSIVDLTNAISKLGVLRATAAGLAGTISRGGAVAIVPAHFGAGGKATEIMKKYNPIVDRPAAKPSAWDDAAPFSSLLRLPVITKSQPFKGHSGTPLIIEQEGAYRSNSGEPLVIKQTGGYRSMSGTPLLLDGGPYKSFSGTPLLIEQKDAYSSFSGTPLLVDSNTLFLTRA",
    "soluble on expression in E. coli": "not soluble"
  },
  {
    "querySequence": "MSVIKLKSKLKYCHYAYDDEGYVIHMLTSNERTFFTNAYIIETKNSIVVVDTLMVNSDAILLRQYMDNINKPLIAVIITHGHPDHYNGTEIITGFKEVPIISTKGIRDCIQDTVDSKEVKWKPYFGQDWPEHKILPNQLVIDSEVVNLDGLDYSFRDLGAAESSSDLFFTLGEKRSVIFVGDVVFNNMHGFMNDGNSAQWLKVLQKLLTEIADVKLLFTGHGDPGDTHQLVQRQIDYISHYRSNLLAIIRGNQLEHHHHHH",
    "soluble on expression in E. coli": "not soluble"
  },
  {
    "querySequence": "SLTSEMIENIQSVKAYCWEEAMEKSGGGSGGGSGGGSGGGIENSHVKKDDIWPSGGQMTVKDLTAKYTEGGNAILENISFSISPGQRVGLLGRTGSGKSTLLSAFLRLLNTEGEIQIDGVSWDSITLEQWRKAFGVIPQKVFIFSGTFRKNLDPYEQWSDQEIWKVADEVGLRSVIEQFPGKLDFVLVDGGCVLSHGHKQLMCLARSVLSKAKILLLDEPSAHLDPVTYQIIRRTLKQAFADCTVILCEARIEAMLECDQFLVIEENKVRQYDSIQKLLNERSDFRQAISPSD",
    "soluble on expression in E. coli": "soluble"
  }
]

Consider `MGSDKIHHHHHHMTHFGVDLWDRFTTRIGEARETLRAAGAPTGLLDQAEGARYLSRIVRLGLEMYLEGGDPDFPSFVLPSHATAKLGGDNPDNLYLSATILGDRSYRLTGNIGSVHYLSIGSKANRYAIDGTMASTGELQKEAFRADANGDFTVIASVKRPEGDVAWLPLAPDSNILQVRQTFLNRARETPARFAIERISEGLAHPAPTDPLAIERRMMAAADFVVNATRMFASWTAMFMPYPNEMRDWGQDMFHKAGGDPAIFYVHGYWKLAPGERLLIETDVPECEHWNIQVDNWWMESMDYRYLPACINAGNAEREADGSVRIVLAADDPGERNWLTTHGHSEGHLLLRWVRAASHPIPKLTLLRD` . Its measured soluble on expression in E. coli is not soluble
